Please provide measured Km for the entries that follow.
test system: SN243; construct: purified; assay: pNP release, absorbance […] nm in microfluidic droplets; type: biochemical, metagenome: source not printed; settings: 100 mM Tris pH 8.0, 150 mM NaCl, room temperature; substrate in DMSO; mean of 12 datasets
Write the number in mM without appending the unit.

Q: Return reported Km; argument: O=[N+]([O-])c1ccc(O[C@@H]2OC[C@@H](O)[C@H](O)[C@H]2O)cc1
A: 21.9

Q: Moving on to the next compound: O=[N+]([O-])c1ccc(O[C@@H]2O[C@H](CO)[C@H](O)[C@H](O)[C@H]2O)cc1
A: 75.8

Q: Subsequent entry: O=[N+]([O-])c1ccc(O[C@@H]2O[C@H](CO)[C@@H](O)[C@H](O)[C@H]2O)cc1
A: 36.8

Q: Again, but for O=C(O)C1OC(Oc2ccc([N+](=O)[O-])cc2)C(O)C(O)C1O (stereo not shown)
A: 1.6
